- TESTED_SYSTEM: T1, RAMP2-CTR ECD fusion protein (hRAMP2.55–140-(GSA)3-hCTR.34–141-H6) (human, UniProt O60895 55-140; P30988 34-141)
- T1 construct: human receptor activity-modifying protein 2 (RAMP2), extracellular domain, residues 55-140; linker, printed as (GSA)3; human calcitonin receptor (CTR), extracellular domain, residues 34-141; Secreted from a pHLsec-based vector; also called AMY receptor 2 ECD; RAMP2 ECD-CTR ECD fusion; source: HEK293T, transiently transfected, secreted to cell culture media, purified (IMAC, SEC)
- T1 chain: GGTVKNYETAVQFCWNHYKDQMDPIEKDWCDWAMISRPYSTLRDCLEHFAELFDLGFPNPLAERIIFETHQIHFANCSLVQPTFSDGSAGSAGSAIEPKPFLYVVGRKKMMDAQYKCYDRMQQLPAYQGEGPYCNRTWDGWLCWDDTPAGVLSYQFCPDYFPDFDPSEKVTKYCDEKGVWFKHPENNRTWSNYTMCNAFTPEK
- TEST_METHOD_NOTES: fluorescence polarisation; competition binding, full curves: FITC-AC413(6–25) Y25P probe 10 nM, RAMP1-CTR ECD 77 nM, RAMP2-CTR ECD 67 nM or RAMP3-CTR ECD 252 nM, competitive peptide at multiple concentrations, all in solution; KI from non-linear regression of anisotropy
- STUDY_CONDITIONS: both partners purified
Where no end group is shown, it is not given here. [ ]: non-standard residue; d: D form. Hyp = O=C(O)[C@@H]1C[C@@H](O)CN1
MEASUREMENT_KIND: pKI

Which value of pKI has been reported for YPRTDTGPGTP-NH2 (salmon calcitonin (sCT), residues 22-32, with N26D and S29P; numbers count on: the mature 32-residue hormone; source: synthetic peptide (Genscript, HPLC-purified)) [sCT(22–32) N26D/S29P] in the records?
6.33 -log10(M)

Can you check YPRTNTGSGT[Hyp]-NH2 (N-terminus assumed; SMILES C[C@@H](O)[C@H](NC(=O)[C@H](CC(N)=O)NC(=O)[C@@H](NC(=O)[C@H](CCCNC(=N)N)NC(=O)[C@@H]1CCCN1C(=O)[C@@H](N)Cc1ccc(O)cc1)[C@@H](C)O)C(=O)NCC(=O)N[C@@H](CO)C(=O)NCC(=O)N[C@H](C(=O)N1C[C@H](O)C[C@H]1C(N)=O)[C@@H](C)O, salmon calcitonin (sCT), residues 22-32, with P32HYP; numbers count on: the mature 32-residue hormone; Residue 32 is hydroxyproline, not plain proline; source: synthetic peptide (Genscript, HPLC-purified)) [sCT(22–32) P32HYP] next?
5.85 -log10(M)

Can you check YPRTDTGPGT[Hyp]-NH2 (salmon calcitonin (sCT), residues 22-32, with N26D, S29P and P32HYP; numbers count on: the mature 32-residue hormone; Residue 32 is hydroxyproline, not plain proline; also called the mutated sCT(22–32); sCT(22–32) with the combined mutations (N26D, S29P, and P32HYP); source: synthetic peptide (Genscript, HPLC-purified)) [sCT(22–32) N26D/S29P/P32HYP] next?
6.47 -log10(M)

Can you check YPRTNTGSGTP-NH2 (salmon calcitonin (sCT), residues 22-32; numbers count on: the mature 32-residue hormone; also called wild-type sCT(22–32); salmon calcitonin fragment 22–32; source: synthetic peptide (Genscript, HPLC-purified)) [sCT(22–32)] next?
5.55 -log10(M)
